src = patent US20130237556A1

# TEST METHOD NOTES: BBR levels in TgCRND8 brain tissue by LC/MS after oral administration
# Assay type: in vivo, mouse
# MEASUREMENT CONDITIONS: TgCRND8, mouse, brain, po, 25 mg/kg/d; low dose of BBR, 3 hr after p.o. administration, LC/MS
ATTRIBUTE MEASURED: concentration at 3 hr

What measured concentration at 3 hr goes with COc1ccc2cc3[n+](cc2c1OC)CCc1cc2c(cc1-3)OCO2 [BBR] ? 880 nM

###

# TEST METHOD NOTES: BBR levels in TgCRND8 brain tissue by LC/MS after oral administration
# Type: in vivo, mouse
# MEASUREMENT CONDITIONS: TgCRND8, mouse, brain, po, 100 mg/kg/d; high dose of BBR, 3 hr after p.o. administration, LC/MS
ATTRIBUTE MEASURED: concentration at 3 hr (nM)
Give the value, in units of nM, as a plain number.

Which measured concentration at 3 hr value corresponds to COc1ccc2cc3[n+](cc2c1OC)CCc1cc2c(cc1-3)OCO2 [BBR] ? 1670
